# system: T1, 4H687-bH
# T1 chain: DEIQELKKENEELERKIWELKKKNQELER
# assay: two-hybrid library CCNG1;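 further: natural log of median RNA to DNA barcode read ratio; higher means stronger binding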
assay_endpoint: interaction score

Solved entries:
DKNQELKKEIEELERENWELEKKIQELKR [4H3606-bH]
-0.48
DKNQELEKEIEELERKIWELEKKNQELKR [4H3112-bH]
-0.713
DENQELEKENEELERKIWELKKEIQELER [4H1193-bH]
-0.482
DKNQELEKEIEELKRKNWELEKKIQELER [4H3189-bH]
-0.776

(I) DEIQELKKEIEELKRENWELKKKNQELER [4H607-bH]
(II) DENQELEKKIEELKRENWELKKEIQELER [4H1369-bH]
(III) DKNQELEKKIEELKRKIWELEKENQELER [4H3427-bH]
Q: # desc sort on interaction score across 3 binders Kindly provide the labels arranged according to the requested ordering.
Ans: II, III, I
(II: 0.994, III: -0.309, I: -0.72)
